Every entry's value here was drawn from paper PMC5540273.

test system: MAP3K15; conditions: concentration: 1 μM, replicates: in singlicate; n = 1;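 further: KINOMEscan kinase panel screen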
// reported %Inh for each item listed

compound: O=C(Nc1ccccc1F)NC1CCN(c2ccnc(Nc3ccc(F)cc3)n2)CC1
%Inh: 0%
//
compound: Cc1ccc(C)c(NC(=O)NC2CCN(c3ccnc(Nc4ccc(F)cc4)n3)C2)c1 (centres unmarked)
%Inh: 0%
//
compound: Cl.c1ccc(-c2ccc3c(Nc4ccc5[nH]ccc5c4)ccnc3c2)nc1
%Inh: 0%
//
compound: NCCCC(NC(=O)c1cc(Br)c(-c2ccnc3[nH]ccc23)s1)c1ccccc1.O=C(O)C(F)(F)F.O=C(O)C(F)(F)F (centres unmarked)
%Inh: 23%
//
compound: COc1cc(Nc2nccc(-c3c(-c4cccc(NC(=O)c5c(F)cccc5F)c4)nn4ncccc34)n2)cc(OC)c1OC
%Inh: 0%
//
compound: O=C(Nc1cccc(-c2nn3ccccc3c2-c2ccnc(Nc3cccc(F)c3)n2)c1)c1c(F)ccc(F)c1Cl
%Inh: 66%
//
compound: c1ccc(Oc2ccc(Nc3ccnc4cc(-c5ccc(CNCCN6CCOCC6)o5)ccc34)cc2)nc1
%Inh: 0%
//
compound: Cc1cccc(NC(=O)Nc2ccc(Oc3ncnc4ccn(C)c34)cc2)c1
%Inh: 0%
//
compound: CN1CCN(Cc2cccc(-c3ccc4c(Nc5ccc(Oc6ccccc6)cc5)ccnc4c3)c2)CC1
%Inh: 0%
//
compound: Nc1ncc(-c2ccc3nccc(-c4ccncc4)c3c2)cc1S(=O)(=O)N1CCOCC1
%Inh: 0%
//
compound: CC(C)c1nc(-c2cccc(NS(=O)(=O)c3c(F)cccc3F)c2F)c(-c2ccnc(Nc3ccc(N4CCOCC4)nc3)n2)s1
%Inh: 0%
//
compound: COc1ccc(CNC(=O)NC2CCN(c3ccnc(Nc4ccc(F)cc4)n3)CC2)cc1
%Inh: 0%
//
compound: COCCOCCOc1cc2ncc3c4ccc(C#N)cc4[nH]c3c2cc1OC
%Inh: 65%
//
compound: Cl.Cl.NCC(C(=O)Nc1cc(Br)c(-c2ccnc3[nH]ccc23)s1)c1ccccc1 (centres unmarked)
%Inh: 0%
//
compound: CC(=O)Nc1nc2cnc(Nc3cc(NC(=O)c4cccc(C5(C#N)CC5)c4Cl)ccc3C)nc2s1
%Inh: 0%
//
compound: COC(=O)Nc1nc2cc(Oc3ccc(NC(=O)Nc4cc(C(F)(F)F)ccc4F)cn3)ccc2[nH]1.Cl.Cl
%Inh: 0%
//
compound: CCCCc1nn2ncccc2c1-c1ccnc(Nc2ccc(N3CCN(C)CC3)cc2)n1
%Inh: 9%
//
compound: O=C(Nc1n[nH]c2cc(-c3ccoc3)ccc12)C1CC1
%Inh: 10%
//
compound: c1ccc(-c2cnc3nccnn23)cc1
%Inh: 0%
//
compound: CN(C)Cc1ccc(-c2ccc3c(Nc4ccc(Oc5ccccn5)cc4)ccnc3c2)o1
%Inh: 0%
//
compound: COc1cc2c(cc1OCCN1CCNCC1)ncc1c3ccc(C#N)cc3[nH]c21
%Inh: 90.1%
//
compound: CSc1cccc2c(-c3ccncn3)c(-c3ccc(F)cc3)nn12
%Inh: 21%
//
compound: Cc1ccc(S(=O)(=O)Nc2ccc(Nc3nccc(Nc4cccc5[nH]ncc45)n3)cc2)cc1
%Inh: 0%
//
compound: Nc1ncnc2c1nc(-c1ccccc1)n2-c1ccccc1
%Inh: 22%
//
compound: O=c1[nH]cc(-c2ccc(N3CCOCC3)cc2)c2sc(-c3cn[nH]c3)cc12
%Inh: 0%
//
compound: Oc1cc(Nc2ccnc3cc(I)ccc23)ccc1F
%Inh: 11%
//
compound: COc1cccc(-c2ccc3c(NC(=O)C4CC4)n[nH]c3n2)c1
%Inh: 0%
//
compound: CN1CCN(CCCNc2nccc(-c3c(-c4ccc(F)cc4)nn4cc(C(F)(F)F)ccc34)n2)CC1
%Inh: 4%
//
compound: CC(C)(C)c1ccc2nccc(Nc3cccc(O)c3)c2c1
%Inh: 0%
//
compound: O=C(O)C(F)(F)F.O=C(O)C(F)(F)F.O=c1[nH]ccc2nc(N[C@@H]3CCCNC3)nc(Nc3ccc(S(=O)(=O)N4CCOCC4)cc3)c12
%Inh: 67%
//
compound: CCS(=O)(=O)c1ccc(OC)c(Nc2nccc(-c3c(-c4cccc(NC(=O)c5c(F)cccc5F)c4)nn4ncccc34)n2)c1
%Inh: 0%
//
compound: COC(=O)Nc1nc2ccc(Oc3ccc(NC(=O)Nc4cc(C(F)(F)F)ccc4F)cc3)cc2n1C.Cl
%Inh: 0%
